Form field: Population Apoptotic (%) (one value per entry).
System: HEK-293T
method: Multiplex assay against HEK293T
Assay type: toxicity, cell-based
measurement.context: human, 48 h, 1 µM, compound concentration 1 uM, replicate 2
Hi, when you answer, please include the unit after the number. Thanks!

Cc1cc(=O)n(C)c2cc(N3C(=O)CC[C@H](NS(=O)(=O)CC(C)C)[C@H]3c3ccc(Cl)cc3)ccc12; 31%
CC(C)C[C@H](CO)Nc1nc(S[C@@H](C)c2ccccc2)nc2nc(N)sc12 [AZD-8797]; 24%
CN1CCN2c3ccccc3Cc3ccccc3C2C1.Cl (centres undefined) [MIANSERIN HYDROCHLORIDE]; 37%

Let us examine a further case.
Q) Which Population Apoptotic (%) is listed for "Cc1cc(O)c(-c2ccc([C@@H](C)CN(C)C)cc2)c2c1[nH]c(=O)c1sccc12" ?
A) 69%

====

System: Fibroblast
method: Multiplex assay against human fibroblast
Type: toxicity, cell-based
measurement.context: 24 h, 10 µM, compound concentration 10 uM, replicate 1
Population Fragmented Nuclei (%) values, listed per item
State the answer as a number, implicitly in %.

# annotated cases, reported Population Fragmented Nuclei (%) shown
CSc1nc(NC2CCCC2)c([N+](=O)[O-])c(NC2CCCC2)n1; 17
Cn1cc(C(=O)OCC2CCN(CCNS(C)(=O)=O)CC2)c2ccccc21; 33
Nc1nc(CC(=O)Nc2ccc(CCNC[C@H](O)c3ccccc3)cc2)cs1; 15
C[C@H](NC(=O)CNC(=O)c1cccc(Cl)c1)c1ccccc1; 14
CN1CCN2c3ccccc3Cc3ccccc3C2C1.Cl (centres undefined) [MIANSERIN HYDROCHLORIDE]; 14

Q) Sample "COC(c1ccccc1)(c1ccccc1)[C@H](Oc1nc(C)cc(C)n1)C(=O)O" — what was its Population Fragmented Nuclei (%)?
A) 12

Q) Return reported Population Fragmented Nuclei (%); argument: "Nc1nc(-c2ccco2)c2cnn(Cc3ccccc3F)c2n1"
A) 19

Q) What value of Population Fragmented Nuclei (%) has been recorded for this entry: "CC(C)(O)C(=O)N1CCN(c2ccc(C(F)(F)F)c(C3=C(c4c[nH]c5ccccc45)C(=O)NC3=O)c2)CC1"
A) 24

Q) What Population Fragmented Nuclei (%) value was documented for this compound, "Cc1cc(NC(=O)NCCN2CCC(O)(Cc3ccccc3)CC2)c2ccccc2n1" ?
A) 14

====

Tested on: Fibroblast
method: Multiplex assay against human fibroblast
Format: toxicity, cell-based
measurement.context: 24 h, 10 µM, compound concentration 10 uM, replicate 2
Could you mark each record condition met if its Population Apoptotic (%) falls strictly under 40%, and condition not met if it equals or exceeds it?

Q) Does the reported Population Apoptotic (%) of the following compound sit strictly below 40%? CN1CCN2c3ccccc3Cc3ccccc3C2C1.Cl (stereo not drawn) [MIANSERIN HYDROCHLORIDE]
A) condition not met

Q) Lab note: Population Apoptotic (%) threshold 40%. Does this compound come in strictly under it? "CC(F)(F)CN1CCOc2c(nn(-c3ccccc3Cl)c2-c2ccc(Cl)cc2)C1=O"
A) condition met

Q) Confirm or reject: Population Apoptotic (%) of "Cc1cc(=O)n(C)c2cc(N3C(=O)CC[C@H](NS(=O)(=O)CC(C)C)[C@H]3c3ccc(Cl)cc3)ccc12" lies strictly below 40%
A) condition not met

Q) Item "O=c1nc2[nH]c3ccccc3nc-2c(=O)[nH]1" : Population Apoptotic (%) beneath 40%, strictly?
A) condition not met

Q) # check: Population Apoptotic (%) < 40% for "COC(c1ccccc1)(c1ccccc1)[C@H](Oc1nc(C)cc(C)n1)C(=O)O"
A) condition met

Q) Lab note: Population Apoptotic (%) threshold 40%. Does this compound come in strictly under it? "C=CCN1C[C@H](C(=O)N(CCCN(C)C)C(=O)NCC)C[C@@H]2c3cccc4[nH]cc(c34)C[C@H]21"
A) condition not met

Q) Does "CCCCCCNC(=O)Nc1ccc(S(=O)(=O)Nc2ccc(CCNC[C@H](O)COc3ccc(O)cc3)cc2)cc1" have Population Apoptotic (%) strictly under 40%?
A) condition not met

Q) Confirm or reject: Population Apoptotic (%) of "COc1cc(Nc2ncc3c(n2)-c2ccc(Cl)cc2C(c2c(F)cccc2OC)=NC3)ccc1C(=O)O" lies strictly below 40%
A) condition not met

====

Tested on: U2OS
method: Multiplex assay against U2OS
Type: toxicity, cell-based
measurement.context: human, 48 h, 1 µM, compound concentration 1 uM, replicate 1
quantity.name: Population Pyknosed Nuclei (%)
// units = %; emit number, no label

COc1cc2nc(N3CCN(C(=O)c4ccco4)CC3)nc(N)c2cc1OC.Cl [PRAZOSIN HYDROCHLORIDE]; 9
CCn1c(-c2nc3cc(C(=O)N4CCCC(N)C4)ccc3n2C)cc2ccccc21.Cl (stereo unspecified); 6
C[C@H](NC(=O)CNC(=O)c1cccc(Cl)c1)c1ccccc1; 10
O=C(NCCNCC(O)COc1ccc(O)cc1)N1CCOCC1.O=C(NCCNCC(O)COc1ccc(O)cc1)N1CCOCC1.O=C(O)/C=C/C(=O)O (stereo unspecified) [XAMOTEROL FUMARATE]; 6
COCCn1c(C)c(C)s/c1=N\C(=O)C1C(C)(C)C1(C)C; 8
S=C(NCCCc1c[nH]cn1)NCCCN(Cc1ccc(Cl)c(Cl)c1)c1ccc(Br)cn1; 7
CN1C[C@H](C(=O)N[C@]2(C)O[C@@]3(O)[C@@H]4CCCN4C(=O)[C@H](Cc4ccccc4)N3C2=O)C[C@@H]2c3cccc4[nH]cc(c34)C[C@H]21.CS(=O)(=O)O [DIHYDROERGOTAMINE MESYLATE]; 7
Cc1c(Cc2ccc3ccccc3n2)c2cc(F)ccc2n1CC(=O)O; 6
Cc1nn(C)c2nc(NNC(=O)Nc3cc(Cl)nc(Cl)c3)cc(C(C)C)c12; 7
COc1cc(OC2CCN(C(C)=O)CC2)ccc1C(=O)N1CCC(N2C(=O)OCc3ccccc32)CC1; 5

Q) Param readout= Population Pyknosed Nuclei (%); system= U2OS; entry= "COc1c(Nc2ccc(S(C)(=O)=O)nc2C)ncnc1OC1CCN(C(=O)OC(C)C)CC1" ; returns value.
A) 7

Q) Report Population Pyknosed Nuclei (%) for CCC(=O)OCC(=O)[C@@]1(OC(=O)CC)[C@@H](C)C[C@H]2[C@@H]3CCC4=CC(=O)C=C[C@]4(C)[C@@]3(Cl)[C@@H](O)C[C@@]21C [BECLOMETHASONE DIPROPIONATE] tested on U2OS.
A) 9

Q) Report Population Pyknosed Nuclei (%) for "COc1cc(Nc2ncc3c(n2)-c2ccc(Cl)cc2C(c2c(F)cccc2OC)=NC3)ccc1C(=O)O" tested on U2OS.
A) 12

Q) Form field - read-out: Population Pyknosed Nuclei (%); system: U2OS; submitted item: "Cn1cc(C(=O)OCC2CCN(CCNS(C)(=O)=O)CC2)c2ccccc21"
A) 9

Q) Field: Population Pyknosed Nuclei (%) (U2OS). Entry: "OCCCNc1cc(-c2ccnc(Nc3cccc(Cl)c3)n2)ccn1"
A) 21

Q) Item: "COc1ccc2c(c1OCc1ccccc1)C[C@@H](C(=O)O)N(C(=O)C(c1ccccc1)c1ccccc1)C2" Test system: U2OS Read-out: Population Pyknosed Nuclei (%) Value: ?
A) 7

====

Tested on: U2OS
method: Multiplex assay against U2OS
Type: toxicity, cell-based
measurement.context: human, 12 h, 10 µM, compound concentration 10 uM, replicate 1
Non-standard residues stand in square brackets, D forms with d. Residues, ends and D or L forms follow the SMILES beside them.
quantity.name: Total Cell Count
Reply with just the number.

// below: answered molecules
O=C(NCCNCC(O)COc1ccc(O)cc1)N1CCOCC1.O=C(NCCNCC(O)COc1ccc(O)cc1)N1CCOCC1.O=C(O)/C=C/C(=O)O (configuration not stated) [XAMOTEROL FUMARATE]; 239
CC(C)C[C@@H]1NC(=O)[C@@H](C(C)C)NC(=O)[C@@H]2CCCN2C(=O)[C@@H](CC(=O)O)NC(=O)[C@@H](Cc2c[nH]c3ccccc23)NC1=O [BQ-123] (cyclo(L[dW][dD]P[dV])); 294
C[C@@H]1CC(=O)Nc2cccc(-c3ccc4c(c3)c(-c3cnn(C)c3)nn4C)c2N1; 235
CN1CCN(c2ccc(Nc3c4ccccc4nc4ccccc34)cc2)CC1.Cl.Cl.O; 213
COc1cc(OC2CCN(C(C)=O)CC2)ccc1C(=O)N1CCC(N2C(=O)OCc3ccccc32)CC1; 228
COCCn1c(C)c(C)s/c1=N\C(=O)C1C(C)(C)C1(C)C; 220

Q) What value of measured Total Cell Count is listed for "COC(c1ccccc1)(c1ccccc1)[C@H](Oc1nc(C)cc(C)n1)C(=O)O" ?
A) 232

Q) Name the reported Total Cell Count value associated with the molecule "Nc1nc(CC(=O)Nc2ccc(CCNC[C@H](O)c3ccccc3)cc2)cs1"
A) 319

Q) Quick check: Total Cell Count of "CCc1nn2c(C)cc(C)nc2c1Cc1ccc(-c2nnc(C3CCNCC3)o2)cc1" ?
A) 214

Q) Any idea what its Total Cell Count is? The molecule is "COc1c(Nc2ccc(S(C)(=O)=O)nc2C)ncnc1OC1CCN(C(=O)OC(C)C)CC1"
A) 266

Q) Total Cell Count for CCn1c(-c2nc3cc(C(=O)N4CCCC(N)C4)ccc3n2C)cc2ccccc21.Cl (configuration not stated) ?
A) 277

Q) Total Cell Count for Cc1ccc(OCC(O)C(C)NC(C)C)c2c1CCC2.Cl (configuration not stated) ?
A) 215

Q) Entry "CSc1nc(NC2CCCC2)c([N+](=O)[O-])c(NC2CCCC2)n1" has what Total Cell Count?
A) 322

Q) Need Total Cell Count, item "C=CCN1C[C@H](C(=O)N(CCCN(C)C)C(=O)NCC)C[C@@H]2c3cccc4[nH]cc(c34)C[C@H]21"
A) 228

Q) Which Total Cell Count value is on record for "S=C(NCCCc1c[nH]cn1)NCCCN(Cc1ccc(Cl)c(Cl)c1)c1ccc(Br)cn1" ?
A) 220

Q) For "N[C@](CC1c2ccccc2Oc2ccccc21)(C(=O)O)[C@H]1C[C@@H]1C(=O)O" , what is its reported Total Cell Count?
A) 295

Q) Find the recorded Total Cell Count belonging to "Cc1cc(O)c(-c2ccc([C@@H](C)CN(C)C)cc2)c2c1[nH]c(=O)c1sccc12" and report it.
A) 222
